tested on: PC12 cells; experiment: Serum starvation-induced apoptosis in PC12 cells, cell viability; assay type: cell-based; conditions: Rattus norvegicus, PC-12; 30 μM compound; serum starvation-induced apoptosis, PC12 cells; read-out: % Viability 30 μM

[
  {
    "molecular-string": "C=CCOC(=O)Nc1ccc(NCc2ccc(F)cc2)nc1N",
    "viability at 30 µM": "92.6%"
  },
  {
    "molecular-string": "CCOC(=O)Nc1ccc(NCc2ccc(C)cc2)cc1N",
    "viability at 30 µM": "71.3%"
  },
  {
    "molecular-string": "COC(=O)Nc1ccc(NCc2ccc(F)cc2)nc1N",
    "viability at 30 µM": "72.3%"
  },
  {
    "molecular-string": "C=CCOC(=O)Nc1ccc(NCc2ccc(Cl)cc2)nc1N",
    "viability at 30 µM": "71.1%"
  },
  {
    "molecular-string": "Nc1ccc(N(Cc2ccc(F)cc2)C(=O)OCc2ccccc2)cc1N",
    "viability at 30 µM": "37.4%"
  }
]
